- tested on: CKR-2 (Caenorhabditis elegans, UniProt M1Z894)
- Sequence (M1Z894 entry or part of it): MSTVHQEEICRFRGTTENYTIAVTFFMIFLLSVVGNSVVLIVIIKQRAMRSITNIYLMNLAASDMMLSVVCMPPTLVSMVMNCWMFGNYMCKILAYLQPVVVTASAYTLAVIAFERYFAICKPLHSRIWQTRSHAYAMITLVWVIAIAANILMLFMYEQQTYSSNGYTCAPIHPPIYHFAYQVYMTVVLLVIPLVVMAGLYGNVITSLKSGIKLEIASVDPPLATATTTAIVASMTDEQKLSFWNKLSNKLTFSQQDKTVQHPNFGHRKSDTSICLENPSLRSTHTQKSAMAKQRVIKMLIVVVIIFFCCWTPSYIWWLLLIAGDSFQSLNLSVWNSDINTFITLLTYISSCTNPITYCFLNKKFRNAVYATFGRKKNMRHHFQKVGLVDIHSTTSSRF
- experimental protocol: GPCR activation assay, CKR-2 (aequorin bioluminescence calcium, CHO-K1 Gα16)
- Format: cell-based
- experimental parameters: read-out: 95% confidence interval (EC50, CKR-2 activation); concentration-response curve fit, n=6
No end group written: not given here.
assay metric: EC50

DYRPLQF-NH2 [NLP-12-1, DYRPLQFamide]: 5.16 to 12.5 nM

Proceeding to the next substance to report its EC50.
Please fill in: EC50 reported for DGYRPLQF-NH2 [NLP-12-2, DGYRPLQFamide] = 6.43 to 16.7 nM

###

Give EC50 for every item shown.
- tested on: CKR-1 (Caenorhabditis elegans, UniProt P91487)
- Sequence (P91487 1-421): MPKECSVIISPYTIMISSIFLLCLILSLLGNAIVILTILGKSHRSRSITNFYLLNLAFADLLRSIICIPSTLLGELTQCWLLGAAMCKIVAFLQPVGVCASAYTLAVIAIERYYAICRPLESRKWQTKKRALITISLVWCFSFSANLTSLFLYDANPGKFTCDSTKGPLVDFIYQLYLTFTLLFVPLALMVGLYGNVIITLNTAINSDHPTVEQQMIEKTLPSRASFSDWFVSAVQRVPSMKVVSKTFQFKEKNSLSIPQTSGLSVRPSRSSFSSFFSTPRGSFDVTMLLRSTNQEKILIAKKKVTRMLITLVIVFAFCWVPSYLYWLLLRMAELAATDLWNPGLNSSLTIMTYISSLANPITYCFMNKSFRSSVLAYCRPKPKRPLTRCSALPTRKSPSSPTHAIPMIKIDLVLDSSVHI
- experimental protocol: GPCR activation assay, CKR-1 (aequorin bioluminescence calcium, CHO-K1 Gα16)
- Assay type: cell-based
- experimental parameters: CHO-K1 cells, aequorin/Gα16; 1 pM to 10 µM, triplicate on 2 independent days (n=6); luminescence 469 nm, 30 s; read-out: EC50 (CKR-1 activation, calcium response)
- Procedure: To obtain direct evidence for NLP-12 activation of CKR-1, we used an in vitro bioluminescence-based approach. […] The GPCR activation assay was performed as previously described ([Caers et al., 2014]; [Peymen et al., 2019]; [Van Sinay et al., 2017]). […] After loading, the transfected cells were added at a density of 25,000 cells/well, and luminescence was measured for 30 s at a wavelength of 469 nm. […]
No end group written: not given here.
One number for each entry, in nM.

DYRPLQF-NH2 [NLP-12-1, DYRPLQFamide]: 3.5

Test item DGYRPLQF-NH2 [NLP-12-2, DGYRPLQFamide] ; CKR-1 (Caenorhabditis elegans, UniProt P91487); reported EC50 was 1.9

###

- tested on: CKR-2 (Caenorhabditis elegans, UniProt M1Z894)
- experimental protocol: GPCR activation assay, CKR-2 (aequorin bioluminescence calcium, CHO-K1 Gα16)
- Assay type: cell-based
- experimental parameters: read-out: EC50 (CKR-2 activation, calcium response); CHO-K1 cells, aequorin/Gα16; 1 pM to 10 µM, triplicate on 2 independent days (n=6); luminescence 469 nm, 30 s
No end group written: not given here.
Please provide measured EC50 for the entries that follow.
Answers are plain numbers, in nM.

DYRPLQF-NH2 [NLP-12-1, DYRPLQFamide]: 8

Reported EC50 of DGYRPLQF-NH2 [NLP-12-2, DGYRPLQFamide] : 10.2
